assay: Acute toxicity (LD50); details: mouse, in vivo, ip; mice, intraperitoneal
ENDPOINT_NAME: LD50

Summary for this compound, COC(=O)C1CC(O)C(O)C(n2cc(CC#N)c3c(OC)cccc32)O1 (stereo not shown) [SF-2140] : LD50 is ≥ 500 mg/kg

----------
test: in vitro; conditions: chicken, chorioallantoic membrane
ENDPOINT_NAME: CC50 at 24 h

Documented CC50 at 24 h of COC(=O)C1CC(O)C(O)C(n2cc(CC#N)c3c(OC)cccc32)O1 (stereo not shown) : > 1000 µg/mL

----------
Test: Serum level after intraperitoneal administration
Type: in vivo
Settings: mouse, serum, ip; 30 min, 200 mg/kg intraperitoneal (1% CMC), biological assay, mice n=5
Description: | Dose: 200 mg/kg (1% CMC)
ENDPOINT_NAME: concentration at 0.5 h (ng/mL)
Your answer should be a plain number; it is taken to be in ng/mL.

# compound COC(=O)C1CC(O)C(O)C(n2cc(CC#N)c3c(OC)cccc32)O1 (stereo not shown) ; its concentration at 0.5 h = 45000
